# measured on: human PTH1 receptor (Homo sapiens)
# Sequence (Q03431 27-593): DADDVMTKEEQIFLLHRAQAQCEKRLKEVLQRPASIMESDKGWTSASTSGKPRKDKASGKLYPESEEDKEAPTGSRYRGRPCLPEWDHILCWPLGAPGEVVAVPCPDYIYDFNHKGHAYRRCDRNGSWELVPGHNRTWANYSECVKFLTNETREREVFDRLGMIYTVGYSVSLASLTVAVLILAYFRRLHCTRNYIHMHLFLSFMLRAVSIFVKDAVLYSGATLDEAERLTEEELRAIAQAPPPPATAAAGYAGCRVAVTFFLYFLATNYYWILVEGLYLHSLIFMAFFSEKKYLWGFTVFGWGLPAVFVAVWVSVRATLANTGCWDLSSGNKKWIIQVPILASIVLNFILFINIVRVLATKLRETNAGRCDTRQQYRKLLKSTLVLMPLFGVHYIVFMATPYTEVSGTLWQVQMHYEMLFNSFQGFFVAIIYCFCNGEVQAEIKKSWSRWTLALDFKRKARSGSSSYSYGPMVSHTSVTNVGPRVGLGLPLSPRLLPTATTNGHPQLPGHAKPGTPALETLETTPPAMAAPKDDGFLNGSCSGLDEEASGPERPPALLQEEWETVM
# test protocol: In vitro cAMP signal activity in HKRK-B7 cells (LLC-PK1 cells overexpressing the human PTH1 receptor)
# Format: cell-based
# condition description: HKRK-B7 cells; compound at 1×10^−3 M; cAMP produced as percentage of that produced by hPTH(1-34) at 100 nM
endpoint label: cAMP production activity (%)

[[record]]
compound = "CC(=O)Nc1ccc(CCS(=O)(=O)N2CCC3(CC2)N=C([C@H]2CC[C@H](CCC(F)F)CC2)NC3=O)c(C)c1"
endpoint_label = "cAMP production activity (%)"
unit_label = "%"
numeric_value = 79

[[record]]
compound = "CC(=O)N(c1ccc(CCS(=O)(=O)N2CCC3(CC2)N=C(c2cccc(OC(F)(F)F)c2)NC3=O)c(C)c1)C1CCCC1"
endpoint_label = "cAMP production activity (%)"
unit_label = "%"
numeric_value = 86

[[record]]
compound = "COCCC1CCC(C2=NC3(CCN(S(=O)(=O)CCc4ccc(C(=O)N(C)C)cc4C)CC3)C(=O)N2)CC1 (stereo not drawn)"
endpoint_label = "cAMP production activity (%)"
unit_label = "%"
numeric_value = 67

[[record]]
compound = "Cc1cc(C(=O)N(C)C)ccc1CCS(=O)(=O)N1CCC2(CC1)N=C(NCC1CCCCC1)NC2=O"
endpoint_label = "cAMP production activity (%)"
unit_label = "%"
numeric_value = 20

[[record]]
compound = "Cc1cc(C(=O)N(C)CCCO)cc(C)c1/C=C/S(=O)(=O)N1CCC2(CC1)N=C(c1cccc(C(F)(F)F)c1)NC2=O"
endpoint_label = "cAMP production activity (%)"
unit_label = "%"
numeric_value = 75

[[record]]
compound = "CC[C@H]1CC[C@H](C2=NC3(CCN(S(=O)(=O)/C=C/c4ccc(N5C(=O)NC(=O)C5(C)C)cc4C)CC3)C(=O)N2)CC1"
endpoint_label = "cAMP production activity (%)"
unit_label = "%"
numeric_value = 53

[[record]]
compound = "O=C1NC(c2cccc(C(F)(F)F)c2)=NC12CCN(S(=O)(=O)CCc1cccc3ccccc13)CC2"
endpoint_label = "cAMP production activity (%)"
unit_label = "%"
numeric_value = 56

[[record]]
compound = "Cc1cc(NC[C@H](O)CO)ccc1CCS(=O)(=O)N1CCC2(CC1)N=C(c1ccc(Cl)cc1)NC2=O"
endpoint_label = "cAMP production activity (%)"
unit_label = "%"
numeric_value = 62

[[record]]
compound = "CCCCCCCCCC1=NC2(CCN(S(=O)(=O)CCc3c(C)cc(OCCC(O)CO)cc3C)CC2)C(=O)N1 (stereo not drawn)"
endpoint_label = "cAMP production activity (%)"
unit_label = "%"
numeric_value = 101

[[record]]
compound = "CC(=O)NCc1ccc(CCS(=O)(=O)N2CCC3(CC2)N=C(C2CCC(CCC(F)(F)F)CC2)NC3=O)c(C)c1 (stereo not drawn)"
endpoint_label = "cAMP production activity (%)"
unit_label = "%"
numeric_value = 82

[[record]]
compound = "Cc1cc(C(=O)N2CCC(C)(O)CC2)cc(C)c1/C=C/S(=O)(=O)N1CCC2(CC1)N=C(c1ccc(F)c(Cl)c1)NC2=O"
endpoint_label = "cAMP production activity (%)"
unit_label = "%"
numeric_value = 110

[[record]]
compound = "CCCCCCC(CCC)CCC1=NC2(CCN(S(=O)(=O)CCc3c(C)cc(N(C)C(N)=O)cc3C)CC2)C(=O)N1 (stereo not drawn)"
endpoint_label = "cAMP production activity (%)"
unit_label = "%"
numeric_value = 111

[[record]]
compound = "Cc1cc(C(=O)N2CCN(c3nccs3)CC2)ccc1CCS(=O)(=O)N1CCC2(CC1)N=C(c1cccc(C(F)(F)F)c1)NC2=O"
endpoint_label = "cAMP production activity (%)"
unit_label = "%"
numeric_value = 78

[[record]]
compound = "Cc1cc(N(C)c2c(N)c(=O)c2=O)cc(C)c1CCS(=O)(=O)N1CCC2(CC1)N=C([C@H]1CC[C@H](C)CC1)NC2=O"
endpoint_label = "cAMP production activity (%)"
unit_label = "%"
numeric_value = 83

[[record]]
compound = "O=C1NC(C2CCCCC2)=NC12CCN(S(=O)(=O)/C=C/c1cccc3c1ccn3CCC(O)CO)CC2 (stereo not drawn)"
endpoint_label = "cAMP production activity (%)"
unit_label = "%"
numeric_value = 44

[[record]]
compound = "Cc1cc(N(C)C(=O)C(F)(F)F)cc(C)c1CCS(=O)(=O)N1CCC2(CC1)N=C(C1CCCC(C)C1)NC2=O (stereo not drawn)"
endpoint_label = "cAMP production activity (%)"
unit_label = "%"
numeric_value = 66

[[record]]
compound = "CC[C@H]1CC[C@H](C2=NC3(CCN(S(=O)(=O)/C=C/c4ccc(N5C(=O)NC(=O)C5C)cc4C)CC3)C(=O)N2)CC1 (stereo partly drawn)"
endpoint_label = "cAMP production activity (%)"
unit_label = "%"
numeric_value = 47

[[record]]
compound = "Cc1cc(C(=O)N(C)C)ccc1CCS(=O)(=O)N1CCC2(CC1)N=C(/C=C/c1ccccc1)NC2=O"
endpoint_label = "cAMP production activity (%)"
unit_label = "%"
numeric_value = 63

[[record]]
compound = "Cc1cc2ccc1CCS(=O)(=O)N1CCC3(CC1)N=C(NC3=O)c1cc(cc(C(F)(F)F)c1)OCCCCCCCN(C)C2=O"
endpoint_label = "cAMP production activity (%)"
unit_label = "%"
numeric_value = 6.6

[[record]]
compound = "Cc1cc(C(=O)N2CCC(N(C)C)CC2)cc(C)c1/C=C/S(=O)(=O)N1CCC2(CC1)N=C(c1cccc(OC(F)(F)F)c1)NC2=O"
endpoint_label = "cAMP production activity (%)"
unit_label = "%"
numeric_value = 7.7

[[record]]
compound = "CN(C)C(=O)c1ccc(CCS(=O)(=O)N2CCC3(CC2)N=C(c2cccc(OC(F)(F)F)c2)NC3=O)c(F)c1"
endpoint_label = "cAMP production activity (%)"
unit_label = "%"
numeric_value = 38

[[record]]
compound = "CCc1cc(NC(C)=O)ccc1/C=C/S(=O)(=O)N1CCC2(CC1)N=C(C1CCC(C)CC1)NC2=O (stereo not drawn)"
endpoint_label = "cAMP production activity (%)"
unit_label = "%"
numeric_value = 57

[[record]]
compound = "CCCCCCCCCC1=NC2(CCN(S(=O)(=O)CCc3c(C)cc(N4C(=O)CNC4=O)cc3C)CC2)C(=O)N1"
endpoint_label = "cAMP production activity (%)"
unit_label = "%"
numeric_value = 84

[[record]]
compound = "Cc1cc(N2C(=O)CNC2=O)ccc1CCS(=O)(=O)N1CCC2(CC1)N=C([C@H]1CC[C@H](CC(F)(F)F)CC1)NC2=O"
endpoint_label = "cAMP production activity (%)"
unit_label = "%"
numeric_value = 68

[[record]]
compound = "Cc1cc(CNC(=O)OC(C)(C)C)ccc1CCS(=O)(=O)N1CCC2(CC1)N=C(C(C)(C)C)NC2=O"
endpoint_label = "cAMP production activity (%)"
unit_label = "%"
numeric_value = 43

[[record]]
compound = "Nc1cccc(CCCS(=O)(=O)N2CCC3(CC2)N=C(C2CCCCC2)NC3=O)c1"
endpoint_label = "cAMP production activity (%)"
unit_label = "%"
numeric_value = 41

[[record]]
compound = "O=C1NC(c2ccc(Cl)cc2)=NC12CCN(S(=O)(=O)/C=C/c1cccc3c1ccn3C[C@H](O)CO)CC2"
endpoint_label = "cAMP production activity (%)"
unit_label = "%"
numeric_value = 62


---

# measured on: human PTH1 receptor (Homo sapiens)
# Sequence (Q03431 27-593): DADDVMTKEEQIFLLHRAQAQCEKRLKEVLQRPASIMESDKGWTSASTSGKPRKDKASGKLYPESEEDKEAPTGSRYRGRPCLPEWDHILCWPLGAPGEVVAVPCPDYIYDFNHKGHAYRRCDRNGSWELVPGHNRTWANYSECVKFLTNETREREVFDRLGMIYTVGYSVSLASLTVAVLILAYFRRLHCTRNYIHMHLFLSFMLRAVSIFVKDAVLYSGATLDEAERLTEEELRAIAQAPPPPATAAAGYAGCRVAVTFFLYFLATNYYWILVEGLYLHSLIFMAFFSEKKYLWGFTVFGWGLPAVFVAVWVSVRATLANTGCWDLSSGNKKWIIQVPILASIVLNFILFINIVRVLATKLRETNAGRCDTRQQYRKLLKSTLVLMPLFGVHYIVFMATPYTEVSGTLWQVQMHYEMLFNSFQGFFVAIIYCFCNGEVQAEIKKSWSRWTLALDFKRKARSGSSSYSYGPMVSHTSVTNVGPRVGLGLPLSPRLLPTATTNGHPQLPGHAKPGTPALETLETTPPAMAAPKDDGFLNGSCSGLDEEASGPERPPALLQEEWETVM
# test protocol: In vitro cAMP signal activity in HKRK-B7 cells (LLC-PK1 cells overexpressing the human PTH1 receptor)
# Type: cell-based
# condition description: HKRK-B7 cells; compound at 1×10^−3 M; cAMP produced as percentage of that produced by hPTH(1-34) at 100 nM
endpoint label: cAMP production activity (%)

[[record]]
compound = "Cc1cc2ccc1CCS(=O)(=O)N1CCC3(CC1)N=C(NC3=O)c1cc(cc(C(F)(F)F)c1)OCC/C=C\\CCCCCN(C)C2=O"
numeric_value = 47

[[record]]
compound = "Cc1cc(N2C(=O)CN(C)C2=O)cc(C)c1/C=C/S(=O)(=O)N1CCC2(CC1)N=C(C1CCC(CCC(F)(F)F)CC1)NC2=O (stereo not shown)"
numeric_value = 88

[[record]]
compound = "Cc1cc(NS(N)(=O)=O)ccc1/C=C/S(=O)(=O)N1CCC2(CC1)N=C(c1cccc(OC(F)(F)F)c1)NC2=O"
numeric_value = 50

[[record]]
compound = "CCCCCCCCCC1=NC2(CCN(S(=O)(=O)CCc3c(C)cc(C(=O)N4CCC(O)CC4)cc3C)CC2)C(=O)N1"
numeric_value = 133

[[record]]
compound = "Cc1cc(NCCO)ccc1CCS(=O)(=O)N1CCC2(CC1)N=C(c1cccc(OC(F)(F)F)c1)NC2=O"
numeric_value = 96

[[record]]
compound = "Cc1cc(S(=O)(=O)Nc2ccncc2)ccc1CCS(=O)(=O)N1CCC2(CC1)N=C(c1cccc(OC(F)(F)F)c1)NC2=O"
numeric_value = 47

[[record]]
compound = "Cc1cc(C(=O)O)cc(C)c1/C=C/S(=O)(=O)N1CCC2(CC1)N=C(C1CCC(CCC(F)(F)F)CC1)NC2=O (stereo not shown)"
numeric_value = 52

[[record]]
compound = "O=C1NC(C2CCCCC2)=NC12CCN(S(=O)(=O)CCc1ccc3[nH]ccc3c1)CC2"
numeric_value = 43

[[record]]
compound = "Cc1cc(N(C)C(N)=O)cc(C)c1/C=C\\S(=O)(=O)N1CCC2(CC1)N=C(CCCCCc1ccccc1)NC2=O.O=C(O)C(F)(F)F"
numeric_value = 50

[[record]]
compound = "Cc1cc(C(=O)N2CCC3(CC2)COC3)cc(C)c1/C=C/S(=O)(=O)N1CCC2(CC1)N=C(c1ccc(F)c(C(F)(F)F)c1)NC2=O"
numeric_value = 75

[[record]]
compound = "Cc1cc(C(=O)N2CCC(O)(CF)CC2)cc(C)c1/C=C/S(=O)(=O)N1CCC2(CC1)N=C(c1ccc(OCC(F)(F)F)c(F)c1)NC2=O"
numeric_value = 81

[[record]]
compound = "Cc1cc(N2C(=O)CNC2=O)ccc1CCS(=O)(=O)N1CCC2(CC1)N=C(C1CCC(C)(C)CC1)NC2=O"
numeric_value = 93

[[record]]
compound = "CC(=O)N(CC(F)(F)F)c1ccc(/C=C/S(=O)(=O)N2CCC3(CC2)N=C(c2cccc(OC(F)(F)F)c2)NC3=O)c(C)c1"
numeric_value = 44

